Molecular target: ER (Homo sapiens (Human), UniProt P03372)
Sequence (P03372 whole entry): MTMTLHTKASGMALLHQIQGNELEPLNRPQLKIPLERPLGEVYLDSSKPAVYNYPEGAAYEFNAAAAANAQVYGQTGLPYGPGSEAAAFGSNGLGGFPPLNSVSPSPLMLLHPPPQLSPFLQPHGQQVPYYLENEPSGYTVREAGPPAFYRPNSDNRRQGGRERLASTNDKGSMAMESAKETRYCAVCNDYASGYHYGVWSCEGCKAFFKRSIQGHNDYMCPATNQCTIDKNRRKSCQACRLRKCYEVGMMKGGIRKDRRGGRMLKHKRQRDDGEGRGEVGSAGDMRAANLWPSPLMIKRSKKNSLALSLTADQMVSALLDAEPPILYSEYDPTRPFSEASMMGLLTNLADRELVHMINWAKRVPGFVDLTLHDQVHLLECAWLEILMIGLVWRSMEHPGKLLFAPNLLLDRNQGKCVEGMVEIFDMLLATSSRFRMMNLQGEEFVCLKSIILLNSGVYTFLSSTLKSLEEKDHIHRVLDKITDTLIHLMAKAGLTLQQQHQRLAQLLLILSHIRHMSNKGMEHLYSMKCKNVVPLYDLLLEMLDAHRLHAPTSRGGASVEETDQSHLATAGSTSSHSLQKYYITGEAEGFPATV
Assay: Western blot analysis (Compounds B1-B278)
Format: cell-based
Conditions: ER degradation by traditional Western blot; DC50 classes
Measured Property: Traditional Western Degradation Potency

Compound	Traditional Western Degradation Potency
C[C@@H]1Cc2c([nH]c3ccccc23)[C@@H](c2ccc(C3=CCC(C(=O)N4CCC(N5Cc6cc7c(cc6C5)C(=O)N(C5CCC(=O)NC5=O)C7=O)CC4)CC3)cc2F)N1CC(C)(C)F (stereo partly shown)	B (“B”: 10-100 nM)
C[C@@H]1Cc2c([nH]c3ccccc23)[C@@H](c2c(F)cc(N3CCC(CN4CC(N5Cc6cc7c(cc6C5)C(=O)N(C5CCC(=O)NC5=O)C7=O)C4)CC3)cc2F)N1CC(F)F (stereo partly shown)	B (“B”: 10-100 nM)
C[C@@H]1Cc2c([nH]c3ccccc23)[C@@H](c2c(F)cc(N3CCC4(CC3)CC(C(=O)N3CCC(CN5Cc6cc7c(cc6C5)C(=O)N(C5CCC(=O)NC5=O)C7=O)CC3)C4)cc2F)N1CC(F)F (stereo partly shown)	B (“B”: 10-100 nM)
C[C@@H]1Cc2c([nH]c3ccccc23)[C@@H](c2cnc(N3CCC4(CCN(C(=O)CN5Cc6cc7c(cc6C5)C(=O)N(C5CCC(=O)NC5=O)C7=O)CC4)CC3)nc2)N1CC(F)(F)F (stereo partly shown)	A (“A”: <10 nM)
C[C@@H]1Cc2c([nH]c3ccccc23)[C@@H](c2c(F)cc(N3CC(C(=O)N4CC(N5Cc6cc7c(cc6C5)C(=O)N(C5CCC(=O)NC5=O)C7=O)C4)C3)cc2F)N1CC(F)F (stereo partly shown)	B (“B”: 10-100 nM)
C[C@@H]1Cc2c([nH]c3ccccc23)[C@@H](c2cnc(N3CCC4(CC3)CN(C(=O)CN3Cc5cc6c(cc5C3)C(=O)N(C3CCC(=O)NC3=O)C6=O)C4)nc2)N1CC(F)(F)F (stereo partly shown)	A (“A”: <10 nM)
C[C@@H]1Cc2c([nH]c3ccccc23)[C@@H](c2c(F)cc(N3CC4(CCN(CC(=O)N5Cc6cc7c(cc6C5)C(=O)N(C5CCC(=O)NC5=O)C7)CC4)C3)cc2F)N1CC(F)F (stereo partly shown)	A (“A”: <10 nM)
C[C@@H]1Cc2c([nH]c3ccccc23)[C@@H](c2c(F)cc(C3CCC(C(=O)N4CCC(N5Cc6cc7c(cc6C5)C(=O)N(C5CCC(=O)NC5=O)C7=O)CC4)CC3)cc2F)N1CC(F)F (stereo partly shown)	A (“A”: <10 nM)

Prompt line: Return reported Traditional Western Degradation Potency; argument: C[C@@H]1Cc2c([nH]c3ccccc23)[C@@H](c2ccc(C3CCC(C(=O)N4CCC(N5Cc6cc7c(cc6C5)C(=O)N(C5CCC(=O)NC5=O)C7=O)CC4)CC3)c(F)c2)N1CC(F)F (stereo partly shown)
Response line: B (“B”: 10-100 nM)

Prompt line: Then C[C@@H]1Cc2c([nH]c3ccccc23)[C@@H](c2c(F)cc(N3CC(CC(=O)N4CC(N5Cc6cc7c(cc6C5)C(=O)N(C5CCC(=O)NC5=O)C7)C4)C3)cc2F)N1CC(F)F (stereo partly shown) [Compound B43] ?
Response line: B (“B”: 10-100 nM)
